Below: a set of entries, each annotated with reported cell viability.
Test system: NOMO1
Experiment: cell viability relative to DMSO control; higher = less cytotoxic
Settings: RPMI 5 mM glucose + 10% dialyzed FBS; 48 h; 0.00234 µM
outcome.measure: cell viability (%)

compound	outcome.measure	recorded.value
O=[N+]([O-])c1ccc(Nc2ccccc2-c2ccccc2)c2nonc12	cell viability	82.6
CN[C@H]1[C@H](O[C@@H]2[C@H](O[C@@H]3[C@@H](O)[C@@H](O)[C@@H](NC(=N)N)[C@@H](O)[C@H]3NC(=N)N)O[C@H](C)[C@@]2(O)C=O)O[C@@H](CO)[C@@H](O)[C@H]1O	cell viability	107
C[C@H](NC(=O)Cc1cc(F)cc(F)c1)C(=O)N[C@@H]1C(=O)N(C)c2ccccc2-c2ccccc21	cell viability	109
COc1ccc(CC2c3cc(OC)c(OC)cc3CC[N+]2(C)CCC(=O)OCCCCCOC(=O)CC[N+]2(C)CCc3cc(OC)c(OC)cc3C2Cc2ccc(OC)c(OC)c2)cc1OC (configuration not stated)	cell viability	87
CN1CCN(Cc2ccc(NC(=O)Nc3ccc(Oc4cc(NC(=O)C5CC5)ncn4)cc3)cc2C(F)(F)F)CC1	cell viability	122
C=CC(=O)Nc1cccc(Oc2nc(Nc3ccc(N4CCN(C)CC4)cc3OC)ncc2Cl)c1	cell viability	77.9
COc1ccccc1OCCNCC(O)COc1cccc2[nH]c3ccccc3c12 (configuration not stated)	cell viability	120
